Listed here: compounds with reported log10 of IC50 for Syk (Homo sapiens (Human), UniProt P43405).
TEST READOUT: log10 of IC50 (log10 of the value in nM)

RECORD SMILES	MEASURED ON	log10 of IC50
C#Cc1cc(Nc2cc(Oc3ccc(NC(=O)Nc4cc(C(C)(C)C)cc(NS(C)(=O)=O)c4OC)c4ccccc34)ccn2)ccc1C(=O)NCCN1CCOCC1	Syk (Homo sapiens (Human), UniProt P43405)	2.21
COc1cc(Nc2cc(Oc3ccc(NC(=O)Nc4cc(C(C)(C)C)cc(NS(C)(=O)=O)c4OC)c4ccccc34)ccn2)ccc1C(=O)NC[C@H](O)[C@H](O)[C@H](O)CO	Syk (Homo sapiens (Human), UniProt P43405)	1.94
COc1cc(Nc2cc(Oc3ccc(NC(=O)Nc4cc(C(C)(C)C)cc(NS(C)(=O)=O)c4OC)c4ccccc34)ccn2)ccc1C(=O)NCCCN1CCS(=O)(=O)CC1	Syk (Homo sapiens (Human), UniProt P43405)	1.76
COc1cc(Nc2cc(Oc3ccc(NC(=O)Nc4cc(C(C)(C)C)cc(NS(C)(=O)=O)c4OC)c4ccccc34)ccn2)ccc1C(=O)NCCC1CCN(C)CC1	Syk (Homo sapiens (Human), UniProt P43405)	1.96
COc1cc(Nc2cc(Oc3ccc(NC(=O)Nc4cc(C(C)(C)C)cc(NS(C)(=O)=O)c4OC)c4ccccc34)ccn2)ccc1C(=O)NCCCN1CC[S+]([O-])CC1	Syk (Homo sapiens (Human), UniProt P43405)	2.02
COc1cc(Nc2cc(Oc3ccc(NC(=O)Nc4cc(C(C)(C)C)cc(NS(C)(=O)=O)c4OC)c4ccccc34)ccn2)cc(OC)c1C(=O)NCCOCCOCCO	Syk (Homo sapiens (Human), UniProt P43405)	2.28
COc1cc(Nc2cc(Oc3ccc(NC(=O)Nc4cc(C(C)(C)C)cc(NS(C)(=O)=O)c4OC)c4ccccc34)ccn2)ccc1C(=O)NCCN1CCCOCC1	Syk (Homo sapiens (Human), UniProt P43405)	1.93
COc1cc(Nc2cc(Oc3ccc(NC(=O)Nc4cc(C(C)(C)C)cc(NC(=O)COP(=O)(O)O)c4OC)c4ccccc34)ccn2)ccc1C(=O)NCCN1CC[S+]([O-])CC1	Syk (Homo sapiens (Human), UniProt P43405)	2.59
COc1cc(Nc2cc(Oc3ccc(NC(=O)Nc4cc(C(C)(C)C)cc(NS(C)(=O)=O)c4OC)c4ccccc34)ccn2)ccc1S(=O)(=O)CCOCCOCCO	Syk (Homo sapiens (Human), UniProt P43405)	2.60
COCCOCCOCCNC(=O)c1ccc(Nc2cc(Oc3ccc(NC(=O)Nc4cc(C(C)(C)C)cc(NS(C)(=O)=O)c4OC)c4ccccc34)ccn2)cc1OC	Syk (Homo sapiens (Human), UniProt P43405)	2.27
COc1cc(Nc2cc(Oc3ccc(NC(=O)Nc4cc(C(C)(C)C)cc(NS(C)(=O)=O)c4OC)c4ccccc34)ccn2)cc(OC)c1C(=O)NCCOCCOCCOP(=O)(O)O	Syk (Homo sapiens (Human), UniProt P43405)	0.90

* * *

Assay: Pharmacokinetics and total colon distribution after oral administration
Format: in vivo
Settings: male, C57BL/6, mouse, total colon; mice, oral 5 mg/kg, dosed compound measured, 8 h; read-out: total colon level
TEST READOUT: concentration at 8 h (ng/g)

RECORD SMILES	VAL
COc1cc(Nc2cc(Oc3ccc(NC(=O)Nc4cc(C(C)(C)C)cc(NS(C)(=O)=O)c4OC)c4ccccc34)ccn2)ccc1C(=O)NCCOCCOCCOP(=O)(O)O	0
